Target: CcdB, biotinylated (E. coli (F-plasmid), UniProt P62554 1-101)
Sequence (P62554 whole entry): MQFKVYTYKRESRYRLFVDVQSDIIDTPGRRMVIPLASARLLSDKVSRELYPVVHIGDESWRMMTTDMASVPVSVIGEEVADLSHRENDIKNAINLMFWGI
Experiment: flow cytometry on cells
measurement.kind: pKd
The quantity pKd is defined as the negative base-10 logarithm of the molar concentration.

QUERY: Name the reported pKd value associated with the binder CcdA wild type, displayed on the yeast surface (natural protein) MKQRITVTVDSDSYQLLKAYDVNISGLVSTTMQNEARRLRAERWKAENQEGMAEVARFIEMNGSFADENRDW
RESULT: 9.60
